target: 5-hydroxytryptamine receptor 4 (Homo sapiens, UniProt Q13639); experiment: Binding affinity to 5HT4 receptor
Sequence (Q13639 whole entry): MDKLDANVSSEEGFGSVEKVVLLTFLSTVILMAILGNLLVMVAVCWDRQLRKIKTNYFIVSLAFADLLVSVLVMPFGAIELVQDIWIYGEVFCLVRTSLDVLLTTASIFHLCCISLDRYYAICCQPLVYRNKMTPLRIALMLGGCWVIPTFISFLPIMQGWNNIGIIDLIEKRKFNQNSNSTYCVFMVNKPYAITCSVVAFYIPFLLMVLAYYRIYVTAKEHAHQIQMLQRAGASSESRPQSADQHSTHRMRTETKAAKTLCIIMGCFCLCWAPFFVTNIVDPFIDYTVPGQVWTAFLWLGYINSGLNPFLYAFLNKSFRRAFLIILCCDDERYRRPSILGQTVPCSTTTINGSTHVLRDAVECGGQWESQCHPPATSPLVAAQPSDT
Readings of Ki for the listed compounds
Measure Name: Ki (nM)

>>> df
                                   compound  sign_qualifier  value_reported
0  CCn1c(=O)n(C(=O)NC2CC3CCC(C2)N3C)c2ccccc21 (configuration not stated)               =              13
1  COc1ccc(C)cc1NC(=O)OC1CC2CCCC(C1)N2Cc1ccccc1 (configuration not stated)               >            1000
